The origin of these recorded values is PubChem BioAssay (NCI).

- assay explanation: NCI Yeast Anticancer Drug Screen. Data for the sgs1 mgt1 strain (AID 161);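 also: 0% = growth of cultures given vehicle only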
- test context: S. cerevisiae sgs1 mgt1 strain, at 5.0 µM (retest, dose inferred, filed as 0.5), stronger effect = higher value
The panel holds about 79,000 compounds, 15% with a hit somewhere; the sample as a whole holds those more often.
For each record, write down the corresponding growth inhibition.
Supply the numeric figure in %, leaving out any unit text.

Exam item: Need growth inhibition of O=C(Nc1ccc(Cl)cc1)c1ccccc1O , thanks.
Marked response: 1

Exam item: Please do the same for CCO/C(=C\C=O)C1CCC2C3CC=C4CC(OC(C)=O)CCC4(C)C3CCC12C (configuration not stated) as well.
Marked response: 8

Exam item: Please do the same for C=CCN(CC=C)C(CC(=O)C(C)(C)C)=NCC as well.
Marked response: 0

Exam item: Please do the same for CCOC(=O)C1=C(C(=O)c2ccc(OC)cc2)C(c2c(Cl)cccc2Cl)C(C(=O)c2ccc(OC)cc2)=C(C(=O)OCC)N1 as well.
Marked response: 19

Exam item: Please do the same for CC(=O)OCC1OC(n2c(C)c(C(C)=O)c(-c3ccco3)c(C#N)c2=S)C(OC(C)=O)C(OC(C)=O)C1OC(C)=O (configuration not stated) as well.
Marked response: 2

Exam item: Please do the same for CC(=O)OC(OC(C)=O)c1c2ccccc2cc2ccccc12 as well.
Marked response: 27

Exam item: Please do the same for c1ccc(Cc2cc3ccccc3c3ccccc23)cc1 as well.
Marked response: 2

Exam item: Please do the same for COc1cc2c(cc1O)C1CN(C2)Cc2cc(OC)c(O)cc21 as well.
Marked response: -11

Exam item: Please do the same for Cc1cc(N)c(S)cc1C as well.
Marked response: 1

Exam item: Please do the same for O=S(c1cc(Br)ccc1O)c1cc(Br)ccc1O as well.
Marked response: 69

Exam item: Please do the same for NC(C/[N+]([O-])=N/O)C(=O)O (configuration not stated) as well.
Marked response: 46

Exam item: Please do the same for CCCCCCCCCC(=O)c1ccc(O)c(O)c1O as well.
Marked response: 44

Exam item: Please do the same for NS(=O)(=O)c1ccc(Nc2c3ccccc3nc3c(C(=O)N4CCN(CCO)CC4)cccc23)cc1 as well.
Marked response: 60

Exam item: Please do the same for c1ccc2c(c1)[nH]c1c(N3CCOCC3)nnc(N3CCOCC3)c12 as well.
Marked response: -2

Exam item: Please do the same for CCCCCCCCCCCCN as well.
Marked response: -4

Exam item: Please do the same for C[Si]1(C)CN(CCN)C[Si](C)(C)O1 as well.
Marked response: 2

Exam item: Please do the same for Nc1c(C(=O)O)ccc(C(=O)O)c1C(=O)O as well.
Marked response: -54

Exam item: Please do the same for Clc1ccc(CNNCc2ccc(Cl)cc2)cc1 as well.
Marked response: -2

Exam item: Please do the same for COc1c(CBr)c(CBr)c(OC)c2c1C(=O)c1ccccc1C2=O as well.
Marked response: 23

Exam item: Please do the same for C=C(C)C(=O)Oc1ccc(N=Nc2ccccc2)ccc1=O as well.
Marked response: 6

Exam item: Please do the same for CC1C[C@]2(C)C(=O)Nc3ccccc3[C@@H]2Nc2ccccc21 (some centres not stated) as well.
Marked response: 22

Exam item: Please do the same for [N-]=[N+]=CC(=O)OCC1NC(=O)C(COC(=O)C=[N+]=[N-])NC1=O (configuration not stated) as well.
Marked response: -1

Exam item: Please do the same for CC(=O)OC1CCC2(C)C(CCC3C4CCC(OC(C)=O)C4(C)CCC32)O1 (configuration not stated) as well.
Marked response: -23

Exam item: Please do the same for CCCCCCCCCCCCCCCCCCOCC(COP(=O)([O-])OCC[N+](C)(C)C)OC (configuration not stated) as well.
Marked response: -13

Exam item: Please do the same for c1ccc([P+](CCCCCCCC[P+](c2ccccc2)(c2ccccc2)c2ccccc2)(c2ccccc2)c2ccccc2)cc1 as well.
Marked response: 46

Exam item: Please do the same for Nc1cc2ccccc2cc1Br as well.
Marked response: 14

Exam item: Please do the same for OC1CC2CCCC(C1)C2 (configuration not stated) as well.
Marked response: -2

Exam item: Please do the same for CCN(CC)Cc1cc2c(cc1O)CC[C@@H]1[C@@H]2CC[C@]2(C)C(=O)CC[C@@H]12 as well.
Marked response: 16

Exam item: Please do the same for NNC(=O)c1ccc(NC(=O)CSc2nc3ccccc3s2)cc1 as well.
Marked response: 9

Exam item: Please do the same for COc1cccc(NC(=S)N2CCCCC2)c1 as well.
Marked response: -69

Exam item: Please do the same for Fc1cccc(CSC(=S)Nc2ccc(F)c(F)c2)c1 as well.
Marked response: 10

Exam item: Please do the same for O=S(c1cc(Cl)cc(Cl)c1O)c1cc(Cl)cc(Cl)c1O as well.
Marked response: 39

Exam item: Please do the same for C=C1CC2(CC(c3ccccc3C)OC(c3ccccc3C)C2)OC1=O (configuration not stated) as well.
Marked response: 76

Exam item: Please do the same for Cc1ccc(S(=O)(=O)C23C(N=NC2(C)C)C3(C)C)cc1 (configuration not stated) as well.
Marked response: -16

Exam item: Please do the same for CN(C)/C=C1\CCc2ccc([N+](=O)[O-])cc2C1=O as well.
Marked response: 24

Exam item: Please do the same for CCOC(=O)/C(C#N)=C\c1ccc([N+](=O)[O-])o1 as well.
Marked response: 8

Exam item: Please do the same for COc1cc(/C=C/C(=O)NCCCCN=[N+]=[N-])ccc1OCc1ccccc1 as well.
Marked response: -7

Exam item: Please do the same for COC1OC2COC(c3ccccc3)OC2C(O)C1OS(=O)(=O)c1ccc(C)cc1 (configuration not stated) as well.
Marked response: -7

Exam item: Please do the same for CC1CC[P+](c2ccccc2)(c2ccccc2)c2c1ccc1ccccc21 (configuration not stated) as well.
Marked response: 81

Exam item: Please do the same for O=C(CC1(O)C(=O)Nc2ccccc21)c1ccc(Cl)c(Cl)c1 (configuration not stated) as well.
Marked response: 1

Exam item: Please do the same for Nc1cc2c(cc1[N+](=O)[O-])[nH]c1c(-c3ccccc3)nccc12 as well.
Marked response: 10

Exam item: Please do the same for CCCCCC[C@H](C/C=C\CCCCCCCC(=O)OC)OC(C)=O as well.
Marked response: -6

Exam item: Please do the same for O=C(O)C#CC(=O)O as well.
Marked response: 28

Exam item: Please do the same for Cc1cc(C)[nH]c(=O)n1 as well.
Marked response: 2

Exam item: Please do the same for O=C(/C=C/c1ccccn1)c1ccccc1 as well.
Marked response: -1

Exam item: Please do the same for COc1ccc(/C=C/C(=O)CCN2CCN(CCC(=O)/C=C/c3ccc(OC)cc3)CC2)cc1 as well.
Marked response: -4

Exam item: Please do the same for CN(CCN1C(=O)c2cccc3cccc(c23)C1=O)CCN1C(=O)c2cccc3cccc(c23)C1=O as well.
Marked response: 69
